Cited source for all entries: patent US10202593B2

The reader will find reported Km values listed item by item below.
Tested on: LPETG (Abz-LPETGK(Dnp)-CONH2)
Measurement notes: In vitro sortase kinetics HPLC assay, LPETG substrate
Assay type: biochemical
Protocol conditions: substrate wt (LPETG); read-out: Km, LxExG
Experimental: See below for details on sortase expression and purification, and on the synthesis of Abz-LPETGK(Dnp)-CONH2 (SEQ ID NO: 19). […] Reactions were initiated with the addition of enzyme and incubated at 22.5° C. for 3 to 20 minutes before quenching with 0.5 volumes of 1 M HCl. […] Percent conversion was also calculated by using the ratio of the integrated areas of the GK(Dnp)-CONH2 and Abz-LPETGK(Dnp)-CONH2 peptide Abs355 peaks were compared directly (Example 5). […]
Property label: Km

Molecule	Result
eSrtA (protein) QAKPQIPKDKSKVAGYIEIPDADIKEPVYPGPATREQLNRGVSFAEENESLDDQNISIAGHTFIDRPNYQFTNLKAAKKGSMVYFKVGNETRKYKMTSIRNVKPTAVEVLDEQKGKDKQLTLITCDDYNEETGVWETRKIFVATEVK	208 µM
4S.6C: 5mut + N98D A104V A118T F122A K134R I182V E189F (protein) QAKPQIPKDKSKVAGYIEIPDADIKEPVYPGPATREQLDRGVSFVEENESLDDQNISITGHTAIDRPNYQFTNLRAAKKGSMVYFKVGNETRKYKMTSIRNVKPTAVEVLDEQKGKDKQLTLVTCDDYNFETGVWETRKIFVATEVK	16.1 µM
eSrtA(4S-4): 5mut + A104V A118T F122S I182V (protein) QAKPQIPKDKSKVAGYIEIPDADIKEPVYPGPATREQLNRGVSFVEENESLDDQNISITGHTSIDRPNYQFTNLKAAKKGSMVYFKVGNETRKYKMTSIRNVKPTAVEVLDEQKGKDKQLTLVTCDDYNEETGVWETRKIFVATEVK	339 µM
2A.6C: 5mut + A104H K138P K152I D160K* K162R I182V (protein) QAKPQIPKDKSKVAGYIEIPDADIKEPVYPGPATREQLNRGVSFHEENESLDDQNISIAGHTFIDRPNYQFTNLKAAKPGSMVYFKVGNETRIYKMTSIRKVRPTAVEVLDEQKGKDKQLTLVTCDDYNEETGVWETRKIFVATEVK	1980 µM
eSrtA(4S-5): 5mut + N98D A104V A118T F122A K134R I182V (protein) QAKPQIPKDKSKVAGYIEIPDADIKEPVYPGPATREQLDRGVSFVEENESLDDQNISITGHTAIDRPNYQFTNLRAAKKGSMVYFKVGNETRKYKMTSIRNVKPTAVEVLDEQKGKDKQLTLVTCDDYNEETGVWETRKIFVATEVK	12.2 µM
eSrtA(2A-3.5) (protein) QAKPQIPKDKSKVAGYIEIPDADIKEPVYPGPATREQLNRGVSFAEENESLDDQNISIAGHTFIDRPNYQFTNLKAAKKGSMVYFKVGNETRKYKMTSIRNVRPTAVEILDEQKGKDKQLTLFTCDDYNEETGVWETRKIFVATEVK	4110 µM
